# measured-on: Cytochrome P450 3A4 (Homo sapiens)
# assay-overview: Cytochrome P450 Family 3 Subfamily A Member 4 (CYP3A4) small molecule antagonists: luciferase reporter qHTS assay (AID 1671201); further: on the % scale 0 is the no-effect control and ±100 the full control effect; nearly all actives have a fitted effect of over 50% in size
# measurement-setup: P450-Glo CYP3A4 enzyme, luciferin luminescence, 1 h; series mostly up to 115 µM
Inconclusive results are not listed. Calls of active or inactive are those of the source. The call rests on the fitted dose curve; in most records, active means well fitted inhibition curve with a large enough effect in the repeat runs; inconclusive means weak or mixed curves; inactive means no such curve, though single readings can be large or run the other way.
test-readout: activity change, negative = inhibition

Answered examples (3):
{"compound": "CCCCCCCCCCCCCCCCCCOCCO", "measured-on": "Cytochrome P450 3A4 (Homo sapiens)", "reading": "11.9% [at 23.6 µM] (inactive)"}
{"compound": "CN1C[C@@H]2C[C@H]1CN2c1cc2c(cc1F)c(=O)c(C(=O)O)cn2C1CC1", "measured-on": "Cytochrome P450 3A4 (Homo sapiens)", "reading": "4.83% [at 23.6 µM] (inactive)"}
{"compound": "CCOC(CN1CCN(CC(C)C(=O)c2ccccc2)CC1)c1ccccc1 (centres undefined)", "measured-on": "Cytochrome P450 3A4 (Homo sapiens)", "reading": "51.9% [at 23.6 µM] (inactive)"}

The compound listed as N[C@@H](CSCCCO)C(=O)O has a reported activity change, negative = inhibition of 15.6% [at 23.6 µM] (inactive)

###

# measured-on: Aryl hydrocarbon receptor (Homo sapiens)
# assay-overview: qHTS assay to identify small molecule that activate the aryl hydrocarbon receptor (AhR) signaling pathway (AID 743085);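 further: HG2L7.5c1 human HepG2 liver cells with stably integrated DRE-driven firefly reporter; on the % scale 0 is the no-effect control and ±100 the full control effect; nearly all actives have a fitted effect of over 15% in size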
# measurement-setup: HepG2 AhR-luc (HG2L7.5c1), luciferase, 24 h; series mostly up to 70.3 µM
Inconclusive results are not listed. The source made the active and inactive calls. Calls follow the shape of the dose curve; as a rule, active = well fitted activation curve with a large enough effect in the repeat runs; inconclusive = weak or mixed curves; inactive = no such curve, though single readings can be large or run the other way.
Please reply with one of these outcomes: active, inactive

Returns: the outcome recorded for Cc1cc(C)c(C(=O)O)c(C)c1 in this assay. inactive

Record lookup: outcome of this test for CN(C)CCN(C)CCO ? inactive

// return assay outcome for OCC1(CO)COCOC1 inactive

###

# assay-overview: qHTS assay to identify small molecule agonists of the NFkB signaling pathway - cell viability counter screen (AID 1159515); further: on the % scale 0 is the no-effect control and ±100 the full control effect; nearly all actives have a fitted effect of over 55% in size
# measurement-setup: NFkB-bla ME-180 viability, CellTiter-Glo luminescence, 5 h; series mostly up to 61 µM
Records with an inconclusive call do not appear. Activity calls are given as the source filed them. Calls follow the shape of the full dose curve.
test-readout: activity, negative = cytotoxic

{"compound": "OCC(O)CN1CCN(c2ccccc2)CC1 (stereo unspecified)", "reading": "inactive"}
{"compound": "c1ccc(-c2nn[nH]n2)cc1", "reading": "inactive"}
{"compound": "C/C=C(\\C)C(C)=O", "reading": "inactive"}
{"compound": "CC(=O)CCC1=C(C)CCCC1(C)C", "reading": "inactive"}
{"compound": "CN(C)CC/C=C1/c2ccccc2COc2ccc(CC(=O)O)cc21", "reading": "inactive"}
{"compound": "O=C(CCCl)NCCc1ccccc1", "reading": "inactive"}

Memo: Cc1cc(-c2ccccc2)nnc1NCCN1CCOCC1 , reported activity, negative = cytotoxic: inactive

Briefly, activity, negative = cytotoxic measured for CC1(C)[C@H]2CC[C@](C)(C2)[C@H]1O : inactive

Measured activity, negative = cytotoxic of CCO[Si](CC)(OCC)OCC : inactive

So, CC(S)C(C)S (stereo unspecified) ? Its activity, negative = cytotoxic was inactive

Sure, the documented activity, negative = cytotoxic for CCCC(=O)OC/C=C(\C)CCC=C(C)C is inactive

The value of activity, negative = cytotoxic measured for the compound C=CCOC(=O)CCCCCC turned out to be inactive

# compound CCCCCCCCCCCCCCCCCCOCCO ; its activity, negative = cytotoxic = inactive

Lab book: activity, negative = cytotoxic of Cc1c(Cl)cccc1Cl noted as inactive

The reported activity, negative = cytotoxic of the compound O=Cc1cc2ccccc2o1 was inactive

Memo: O=C(O)[C@H](O)c1ccccc1 , reported activity, negative = cytotoxic: inactive

Please fill in: activity, negative = cytotoxic reported for O=Cc1ccccc1Cl = inactive

Memo: O=C[O][Al]([O]C=O)[O]C=O , reported activity, negative = cytotoxic: inactive

Lab note: CCOC(=O)CC1(C)OCC(C)O1 (stereo unspecified) gave activity, negative = cytotoxic of inactive
